Entry source: patent US8404713B2

Biological target: TANK-2 enzyme (Homo sapiens)
Construct: made in house
Sequence (Q9H2K2 1-1166): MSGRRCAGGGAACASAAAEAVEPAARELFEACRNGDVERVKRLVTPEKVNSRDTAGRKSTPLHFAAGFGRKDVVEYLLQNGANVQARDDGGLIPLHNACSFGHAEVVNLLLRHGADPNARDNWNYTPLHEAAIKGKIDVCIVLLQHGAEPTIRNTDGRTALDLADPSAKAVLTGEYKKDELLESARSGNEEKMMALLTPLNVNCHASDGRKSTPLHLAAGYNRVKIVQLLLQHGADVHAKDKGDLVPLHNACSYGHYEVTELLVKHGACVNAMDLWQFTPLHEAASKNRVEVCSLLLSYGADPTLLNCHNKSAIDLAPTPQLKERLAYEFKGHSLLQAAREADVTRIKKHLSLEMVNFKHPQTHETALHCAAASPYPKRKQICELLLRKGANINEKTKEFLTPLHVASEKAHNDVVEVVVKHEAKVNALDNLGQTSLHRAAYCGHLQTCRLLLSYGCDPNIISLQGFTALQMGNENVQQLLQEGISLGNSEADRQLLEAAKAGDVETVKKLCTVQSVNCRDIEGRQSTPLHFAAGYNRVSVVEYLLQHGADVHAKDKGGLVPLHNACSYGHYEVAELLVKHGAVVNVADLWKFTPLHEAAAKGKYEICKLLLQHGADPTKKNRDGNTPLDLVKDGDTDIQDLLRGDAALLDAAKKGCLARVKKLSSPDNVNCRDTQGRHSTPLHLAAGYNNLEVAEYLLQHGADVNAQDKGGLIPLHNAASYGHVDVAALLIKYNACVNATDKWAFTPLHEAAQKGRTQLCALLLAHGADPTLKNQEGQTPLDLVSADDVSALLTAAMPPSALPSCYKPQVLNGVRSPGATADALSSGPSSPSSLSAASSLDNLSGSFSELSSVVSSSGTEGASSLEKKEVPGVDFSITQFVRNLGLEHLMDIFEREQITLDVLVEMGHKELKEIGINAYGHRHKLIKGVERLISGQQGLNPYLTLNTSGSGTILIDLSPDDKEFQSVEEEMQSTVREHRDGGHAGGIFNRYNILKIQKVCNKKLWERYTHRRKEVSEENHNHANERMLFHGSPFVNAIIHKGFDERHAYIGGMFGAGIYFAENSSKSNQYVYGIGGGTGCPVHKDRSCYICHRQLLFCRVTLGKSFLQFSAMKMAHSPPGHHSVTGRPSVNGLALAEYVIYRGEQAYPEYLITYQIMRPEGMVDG
Test: In vitro scintillation proximity assay (SPA) for TANK-2 inhibitory activity
Type: biochemical
Settings: auto-poly(ADP-ribosyl)ation, Ni flash plates; 96-well results if available, otherwise 384-well; tested between 10^-5 M and 3x10^-8 M; read-out: in vitro SPA assay TANK-2 pIC50 (converted)
Measurement Label: IC50 (µM)
Give a bare numeral; the unit µM is implied.

Solved cases below.
Compound: CCc1cc2ccc(CN3CCN(c4ccccn4)CC3)cc2[nH]c1=O
IC50, µM: 0.687
--
Compound: Cc1cc2ccc(C(C(C)C)N3CCN(c4ccc(C#N)cn4)CC3)cc2[nH]c1=O (stereo not shown)
IC50, µM: 1.23
--
Compound: CCc1cc2ccc(CN3CCN(c4ccncc4)CC3)cc2[nH]c1=O
IC50, µM: 0.398
--
Compound: CCc1cc2ccc(C(=O)N3CCc4ccccc4C3)cc2[nH]c1=O
IC50, µM: 0.454

Supply IC50 value. Item: CCc1cc2ccc(CNCc3ccncc3)cc2[nH]c1=O
0.144

Query IC50 for Cc1cc2ccc(C(C)N3CCC(c4ccccc4)CC3)cc2[nH]c1=O (stereo not shown)
1.86

Item CCc1cc2ccc(C(O)CN3CCOCC3)cc2[nH]c1=O (stereo not shown) : provide IC50
0.225

Return reported IC50. Input compound: Cc1cc2ccc(C(C)N3CCCC3)cc2[nH]c1=O (stereo not shown)
2.14

For the compound CCc1cc2ccc(CN3CCN(c4ncc(C(=O)NCCO)cn4)CC3)cc2[nH]c1=O , give its reported IC50.
0.033

Retrieve IC50 measured for CCc1cc2ccc(CN3CCc4ccccc4C3)cc2[nH]c1=O and print it.
0.424

Supply IC50 value. Item: Cc1cc2ccc(C(C)N3CCC(c4ccc(Cl)cc4)CC3)cc2[nH]c1=O (stereo not shown)
2.8

Specify reported IC50 for the compound shown: CCc1cc2ccc(C(O)CN3CCN(c4ncccn4)CC3)cc2[nH]c1=O (stereo not shown)
0.0923

Identify IC50 associated with the compound COc1ccccc1N1CCN(C(c2ccc3cc(C)c(=O)[nH]c3c2)C2CCCCC2)CC1 (stereo not shown)
0.933

Input CCc1cc2ccc(CN3CC=C(c4ccccc4)CC3)cc2[nH]c1=O , output reported IC50.
0.986

Assign IC50 to the following record: CCc1cc2ccc(CN3C[C@@H]4C[C@H]3CN4c3ccc(Cl)cc3)cc2[nH]c1=O
0.65

# return recorded IC50 for input CCc1cc2ccc(CN3CCN(CCOC)CC3)cc2[nH]c1=O
3.96

Using the record for CCc1cc2ccc(CN3CCCC3)cc2[nH]c1=O , state its measured IC50.
4.22

Retrieve IC50 measured for CCc1cc2ccc(CNCCN3CCN(c4ncccn4)CC3)cc2[nH]c1=O and print it.
1
